Values from patent US20040224958A1

# Lookup of reported pIC50 keyed by entry
Biological target: cdk2/cyclinA (Homo sapiens, UniProt P24941)
Assay: Cyclin-Dependent Kinase Assay cdk2/cyclinA
Settings: cdk2/A IC50
pIC50: −log10 of the molar value.

| Compound | pIC50 |
| --- | --- |
| CCC(CC)n1c(=O)ccc2cnc(Nc3ccc(NC(=O)OC(C)(C)C)cc3)nc21 [Example 494] | 6.36 |
| CCCCn1c(=O)ccc2cnc(Nc3cccc(I)c3)nc21 [Example 375] | 6.39 |
| CCn1c(=O)ccc2cnc(Nc3cc(F)cc(F)c3)nc21 [Example 303] | 5.92 |
| O=c1ccc2cnc(Nc3ccc4nn[nH]c4c3)nc2n1CC(F)(F)F [Example 595] | 5.84 |
| Cc1ccc(Nc2ncc3ccc(=O)n(C4CCCC4)c3n2)cc1C [Example 549] | 6.72 |
| CCCCn1c(=O)ccc2cnc(Nc3ccc(NC(=O)OC(C)(C)C)cc3)nc21 [Example 381] | 6.29 |
| CC(=O)N(C)c1ccc(Nc2ncc3ccc(=O)n(C(C)C)c3n2)cc1 [Example 432] | 6.38 |

---

Target: Cdk5/p25 (Homo sapiens, UniProt Q00535)
Assay: Cyclin-Dependent Kinase 5 High Throughput Screening (cdk5-HTS) Assay
Type: biochemical
Details: high throughput screen
pIC50: −log10 of the molar value.
Label fulfilled when pIC50 >= 7; otherwise not fulfilled.

| Molecule | Tested target | Assigned class |
| --- | --- | --- |
| Cc1cc(Nc2ncc3ccc(=O)n(C(C)C)c3n2)ccc1O [Example 435] | Cdk5/p25 (Homo sapiens, UniProt Q00535) | not fulfilled |
| O=c1ccc2cnc(Nc3cc(F)cc(F)c3)nc2n1CC(F)(F)F [Example 609] | Cdk5/p25 (Homo sapiens, UniProt Q00535) | not fulfilled |
| CC(C)n1c(=O)ccc2cnc(Nc3ccc(F)c(F)c3)nc21 [Example 426] | Cdk5/p25 (Homo sapiens, UniProt Q00535) | fulfilled |
| CCCn1c(=O)ccc2cnc(Nc3ccc(O)c(C)c3)nc21 [Example 354] | Cdk5/p25 (Homo sapiens, UniProt Q00535) | not fulfilled |
| CCC(C)n1c(=O)ccc2cnc(Nc3ccc(F)c([N+](=O)[O-])c3)nc21 (centres unmarked) [Example 475] | Cdk5/p25 (Homo sapiens, UniProt Q00535) | not fulfilled |
| O=c1ccc2cnc(Nc3ccc(Cl)c(Cl)c3)nc2n1C1CCCC1 [Example 532] | Cdk5/p25 (Homo sapiens, UniProt Q00535) | not fulfilled |
| CCn1c(=O)ccc2cnc(Nc3cccc(C(F)(F)F)c3)nc21 [Example 305] | Cdk5/p25 (Homo sapiens, UniProt Q00535) | not fulfilled |
| CCC(CC)n1c(=O)ccc2cnc(Nc3ccc(F)c(C)c3)nc21 [Example 503] | Cdk5/p25 (Homo sapiens, UniProt Q00535) | fulfilled |
| CCCn1c(=O)ccc2cnc(Nc3cccc(NC(C)=O)c3)nc21 [Example 353] | Cdk5/p25 (Homo sapiens, UniProt Q00535) | not fulfilled |
| O=c1ccc2cnc(Nc3ccc(F)c([N+](=O)[O-])c3)nc2n1CC1CC1 [Example 576] | Cdk5/p25 (Homo sapiens, UniProt Q00535) | not fulfilled |
| CC(C)n1c(=O)ccc2cnc(Nc3ccc4[nH]ccc4c3)nc21 [Example 409] | Cdk5/p25 (Homo sapiens, UniProt Q00535) | fulfilled |
| COc1cc(Nc2ncc3ccc(=O)n(CC(F)(F)F)c3n2)cc(C(F)(F)F)c1 [Example 606] | Cdk5/p25 (Homo sapiens, UniProt Q00535) | not fulfilled |
| CC(C)n1c(=O)ccc2cnc(Nc3ccc4cn[nH]c4c3)nc21 [Example 438] | Cdk5/p25 (Homo sapiens, UniProt Q00535) | not fulfilled |
| CCCCn1c(=O)ccc2cnc(Nc3ccc(O)c(Cl)c3)nc21 [Example 383] | Cdk5/p25 (Homo sapiens, UniProt Q00535) | fulfilled |
| CCC(C)n1c(=O)ccc2cnc(Nc3ccc(I)c(Cl)c3)nc21 (centres unmarked) [Example 464] | Cdk5/p25 (Homo sapiens, UniProt Q00535) | fulfilled |
| CCC(CC)n1c(=O)ccc2cnc(Nc3ccc(O)c(Cl)c3)nc21 [Example 496] | Cdk5/p25 (Homo sapiens, UniProt Q00535) | fulfilled |
| CCCCn1c(=O)ccc2cnc(Nc3cc([N+](=O)[O-])ccc3F)nc21 [Example 415] | Cdk5/p25 (Homo sapiens, UniProt Q00535) | not fulfilled |
